The measurements presented in this section are drawn from PubChem BioAssay (NCI).

# Test system: RXF 393 renal
# assayInfo: NCI-60 one-dose screen, 48 h (100 = growth as untreated, 0 = no growth, -100 = all killed)
# experimentalSetup: 10 µM unless noted
Compounds without any hit were thinned out: in the full panel of roughly 83,000, 20% have a hit.
Here the recorded growth is given for each entry.
valueType: growth (%)

1) COc1cc2cc(Oc3ccc(NC(=O)c4cc(C(F)(F)F)cc(C(F)(F)F)c4)cc3)c(C)nc2cc1OCCN1CCOCC1    1.66
2) NCCNC(=O)c1cccc(COc2ccccc2NC(=O)c2cc(Br)c(Br)[nH]2)c1    93.4
3) CN1CCN(CC#CCn2c3c(c4ccccc42)C[C@]2(C)[C@H]4CC=C5[C@@H]6CC(C)(C)CC[C@]6(C(=O)N6CCOCC6)CC[C@@]5(C)[C@]4(C)CC[C@H]2C3(C)C)CC1    68.4
4) O=C(CCCCCCN1CC(=O)N2[C@@H](C3CC3)c3[nH]c4ccccc4c3C[C@H]2C1=O)NO    76.5
5) O=S(=O)(NCCCNc1nccc(-c2[nH]c(-c3ccccc3)nc2-c2ccc(F)c(O)c2)n1)c1ccc(C(F)(F)F)cc1    24.5
6) Cc1c(C(=O)/C=C/c2ccc(Cl)cc2)nnn1-c1ccc2oc(=O)ccc2c1    86.5
7) Clc1ccc(CSc2nnc(-c3ccc(Cl)cc3)n2-c2ccccc2)cc1    57.1
8) O=C1[C@H]2Cc3c([nH]c4ccccc34)[C@H](c3ccc(Br)cc3)N2C(=O)CN1C1CCN(CC2CCCCC2)CC1    62.6
9) CCOC(=O)c1cccc(NC2=C(Cl)C(=O)c3nc(C)ccc3C2=O)c1    97.8
10) CN1CCN(Cc2ccc(NC(=O)c3cncc(C#Cc4cnc5ccc(OCCCS(C)(=O)=O)nn45)c3)cc2C(F)(F)F)CC1    -79.6
11) COc1ccc2c(c1)c(/C=N/Nc1ccnc3cc(Cl)ccc13)cn2C    -81.1
12) CN1CCN(CCNc2nc(-c3cccc(NS(=O)(=O)c4cccc5c(N(C)C)cccc45)c3)cs2)CC1    61.6
13) COc1cc2oc(-c3cccc(NC(=O)[C@@H](N)C(C)C)c3)cc(=O)c2c(OC)c1OC    107
14) O=C(CSc1nc2ccccc2c(=O)n1-c1ccccc1)Nc1ccc(S(=O)(=O)Nc2nccs2)cc1    76.5
15) CC(C)NC(=O)c1cc(-c2ccc(NC(=O)Nc3ccc(F)c(C(F)(F)F)c3)cc2)nc2cccnc12    81.9
16) Cc1[nH]c(C(=O)Nc2ccc(S(=O)(=O)N3CCCCC3)cc2OCCOCCOCCOCCOCCOCCOCCOCCOCCOc2cc(S(=O)(=O)N3CCCCC3)ccc2NC(=O)c2[nH]c(C)c3c2CCCCC3=O)c2c1C(=O)CCCC2    47

* * *

# Test system: M14 melanoma
# assayInfo: NCI-60 one-dose screen, 48 h
# experimentalSetup: 10 µM unless noted
Compounds without any hit were thinned out: in the full panel of roughly 83,000, 20% have a hit. Calls of active or inactive are those of the source. How the source made its calls: active means growth percent below 10; inactive means the rest.
Possible outcomes: YES = active, NO = inactive

1) CC(=C(c1ccc(OCCN(C)C)cc1)c1ccc(OCCN(C)C)cc1)c1ccc(Cl)cc1    YES
2) COc1cccc2c1C=CC1(O2)Oc2cccc(OC)c2C=C1C (centres undefined)    YES
3) C#CCN(C)CCCOc1ccc(NCc2ccc(C(=O)NO)cc2)cc1Cl    NO
4) COc1cc(/C=N\NC(=O)c2ccc3nc(-c4ccc(Br)cc4)[nH]c3c2)cc(OC)c1OC    NO
5) Clc1cccc(/C=N/Nc2nc(N/N=C/c3cccc(Cl)c3)nc(N3CCOCC3)n2)c1    NO
6) Cc1cc(=O)[nH]c(O)c1C#N    NO
7) CCCCCCNC(=O)Oc1ccc(/C(=C(/C)c2ccc(OC)cc2)c2ccc(OCCN3CCCCCC3)cc2)cc1    YES
8) CN1CCC[C@]2(C)[C@H]3CC[C@@H]4[C@@H]5[C@H]6OC[C@@]5(CCC6(C)C)CC[C@@]4(C)[C@]3(C)CC[C@H]2C1(C)C    NO
9) C[C@]12CC[C@H]3[C@@H](CC=C4C[C@@H](O)CC[C@@]43C)[C@@H]1CC[C@@H]2[C@](C)(O)CCc1cccnc1    NO
10) O=C(CCCCCCNC(=O)C(O)(O)C(F)(F)F)Nc1ccc(Br)cc1    NO
11) COc1ccc(/C=N/NC(=O)c2c(N)nn(C)c2Nc2ccccc2)cc1Oc1ccccc1    NO
12) CCc1nnc(NC(=O)c2cc(-c3ccc(Cl)cc3Cl)oc2C)s1    NO
13) O=C1[C@@H]2Cc3c([nH]c4ccccc34)[C@H](c3ccc(Cl)cc3)N2C(=O)CN1C1CCN(Cc2ccccc2)CC1    NO
14) CC(C)(C)OC(=O)Nc1ccc(-c2cccc(Oc3ccc4nnc(Cl)n4n3)c2)cc1    NO
15) CN(C)CCCOc1ccc(C(=C(c2ccccc2)C2CCCC2)c2ccc(OCCCN(C)C)cc2)cc1    YES
16) COc1cc(/C=C2/C(=O)Nc3ccc(Cl)cc32)ccc1OCc1ccc(Cl)cc1    NO
17) O=C(CCCCCC/C=C\c1csc(Br)n1)NO    NO
18) OCC(Nc1ncnc2ccc(-c3cnc4cnccn34)cc12)c1ccccc1 (centres undefined)    NO
19) COc1ccc(OC)c(NC(=O)CCCCCCNC(=O)C(O)(O)C(F)(F)F)c1    NO

* * *

# Tested on: SR leukemia
# assayInfo: NCI-60 one-dose screen, 48 h (100 = growth as untreated, 0 = no growth, -100 = all killed)
# experimentalSetup: 10 µM unless noted
The panel holds about 83,000 compounds, 20% with a hit somewhere; the sample as a whole holds those more often.
Here the recorded growth is given for each entry.
valueType: growth (%)

1) Cc1cc(Br)ccc1-n1cc(C#N)c(N)c1C(=O)c1ccc(Br)cc1    89.4
2) O=C(/C=C/c1ccc(F)cc1)Nc1cccc2cccnc12    103
3) O=C(/C=C/c1ccccc1Cl)Nc1ncc(Cc2cc(Cl)ccc2Cl)s1    14.3
4) CC(=O)N(O)CCCCCNC(=O)CCC(=O)N(O)CCCCCNC(=O)CCC(=O)N(O)CCCCCN(CCCCCCCCCC[P+](c1ccccc1)(c1ccccc1)c1ccccc1)CCCCCCCCCC[P+](c1ccccc1)(c1ccccc1)c1ccccc1    1.64
5) CCC(=C(c1ccc(OCCN2CCCCCC2)cc1)c1ccc(OCCN2CCCCCC2)cc1)c1ccc(Cl)cc1    -5.89
6) COc1cccc(N2CCN(C3=C(Cl)C(=O)c4ncccc4C3=O)CC2)c1    4.42
7) O=C(COc1ccc(/C=C2\C(=O)Nc3cc(Cl)ccc32)cc1)Nc1ccc(Cl)cc1    54.8
8) O=C(/C=C/c1ccc(Cl)c(Cl)c1)Nc1ncc(Cc2ccc(Cl)c(Cl)c2)s1    38
9) CN(C)S(=O)(=O)c1ccc(-c2nc(C(Cl)Cl)nc3cc(-c4ccccc4)nn23)cc1    36.2
10) COc1cc2cc(Oc3ccc(NC(=O)c4cc(C(F)(F)F)cc(C(F)(F)F)c4)cc3)c(C)nc2cc1OCCN1CCOCC1    20.6
11) CN1CCN(Cc2ccc(/C=N/Nc3ccnc4cc(Cl)ccc34)cc2)CC1    2.66
12) CN1CCN(c2ccc(Nc3nc(NCCNS(=O)(=O)c4ccccc4)c4sccc4n3)cc2)CC1    117
13) O=C(CCCCCCN1CC(=O)N2[C@@H](c3ccc(Cl)s3)c3[nH]c4ccccc4c3C[C@H]2C1=O)NO    14.7
14) CC1(C)CC[C@]23CC[C@]4(C)[C@H](CC[C@@H]5[C@@]6(C)CC[C@H](N)C(C)(C)[C@@H]6CC[C@]54C)[C@H]2[C@H]1OC3    -22.5
15) O=C(O)c1ccc(-n2c(=O)n(-c3cccc(C(F)(F)F)c3)c(=O)c3cc(-c4ccc(F)cc4F)ccc32)cc1    8.91
16) CN1CCN(CCNc2nc(-c3cccc(NS(=O)(=O)c4cccc5c(N(C)C)cccc45)c3)cs2)CC1    23.4
17) COc1cc(/C=C2/C(=O)Nc3ccc(Cl)cc32)ccc1OCc1ccc(Cl)cc1    41.9

* * *

# Tested on: SK-MEL-28 melanoma
# assayInfo: NCI-60 one-dose screen, 48 h (100 = growth as untreated, 0 = no growth, -100 = all killed)
# experimentalSetup: 10 µM unless noted
# Procedure: Growth inhibition of the SK-MEL-28 human tumor cell line is measured as a screen for anti-cancer activity. Cells are grown in 96 well plates and exposed to the test compound for 48 hours. Compounds are tested at a single concentration, which is 10^-5 M for most compounds. The reported endpoint is percent growth (GI% or GIPRCNT), where numbers from 0 - 100% represent growth inhibition, and numbers from -100% - 0 represent cell death. For example, a value of 40 represents 60% growth inhibition. […]
About 83,000 compounds went through this panel and 20% of them were active in at least one assay; those are over-represented in the sample as a whole.
valueType: growth (%)

1. NS(=O)(=O)c1ccc(Nc2nc(N/N=C/c3ccc4c(c3)OCO4)nc(Nc3ccccc3)n2)cc1    67.5
2. Cc1cc2nc(C(Cl)Cl)nc(-c3ccc(S(=O)(=O)N(C)C)cc3)n2n1    59.3
3. Cc1ccc(-c2cc3nc(C(Cl)Cl)nc(-c4ccc(S(=O)(=O)N(C)C)cc4)n3n2)cc1    99.5
4. O=C(CCCCCCNC(=O)C(O)(O)C(F)(F)F)Nc1ccc(Br)cc1    9.41
5. Brc1cc(-c2cc(-c3ccc4c(c3)OCCO4)[nH]n2)cs1    58.6
6. CS(=O)(=O)c1nccc(-c2c(-c3cccc(OCc4ccc(Cl)c(C(F)(F)F)c4)c3)nc3sccn23)n1    50.5
7. CC1(C)CC[C@]2(C(=O)O)CC[C@]3(C)C(=CC[C@@H]4[C@@]5(C)CC[C@H](NOCCCN)C(C)(C)[C@@H]5CC[C@]43C)[C@@H]2C1    87.4
8. CN(C)c1cccc2c(S(=O)(=O)Nc3cccc(-c4csc(NC(=O)CCCCCN5CCN(CCO)CC5)n4)c3)cccc12    -7.14
9. O=c1c2cc(-c3ccc(F)cc3F)ccc2n(O)c(=O)n1-c1cccc(C(F)(F)F)c1    27.2
10. CCN(CC)c1ccc(/C=N/NC(=O)c2ccc(NS(C)(=O)=O)cc2)c(O)c1    23
11. O=S1SC(c2ccccc2)=NN1c1cc(F)cc(F)c1 (centres undefined)    46.4
12. O=C1C(SCc2ccccc2)=C(Cl)CN1c1ccccc1    98.9
13. O=C1/C(=C/c2cc(F)cc(F)c2)Cc2cc3c(cc21)OCO3    57.8
14. O=C(CCCCCCN1CC(=O)N2[C@@H](C3CC3)c3[nH]c4ccccc4c3C[C@H]2C1=O)NO    32.3
15. CCOC(=O)Nc1ccc2c(ccn2C(=O)c2cccc(F)c2)c1    61.5
16. COc1cccc(N2CCN(C3=C(Cl)C(=O)c4ncccc4C3=O)CC2)c1    105
17. CCOC(=O)c1ccc(NC2=CC(=O)C(C)=C(C)C2=O)cc1    109
18. NS(=O)(=O)c1ccc(Nc2nc(Nc3ccccc3)nc(N3N=C(c4ccc(Cl)cc4)CC3c3ccc(Cl)cc3)n2)cc1 (centres undefined)    47.1
19. CC(Nc1c(C#N)cnc2ccc(-c3cncc(O)c3)cc12)c1ccccc1 (centres undefined)    3.08
